- Type: in vivo, human
- condition details: male, human, plasma, AUC0‐∞, LS mean, amenamevir 1200 mg with ritonavir 600 mg, n = 24
metric: AUC
Mention the unit after the number when you answer.

## Task Give its AUC value. Item: `Cc1cccc(C)c1N(CC(=O)Nc1ccc(-c2ncon2)cc1)C(=O)C1CCS(=O)(=O)CC1`
## Result 162 µg·h/mL

---

- Assay type: in vivo, human
- condition details: male, human, plasma, oral, AUC0–∞, geometric mean, Day 12, midazolam 7.5 mg with amenamevir 400 mg (last of 10 daily doses), n = 18
metric: AUC(0-inf) (ng·h/mL)
API: value field is a number in ng·h/mL; no unit string.

## Task I am curious: what AUC(0-inf) value has been reported for `Cc1ncc2n1-c1ccc(Cl)cc1C(c1ccccc1F)=NC2` ?
## Result 58

---

- Format: in vivo, human
- condition details: male, human, plasma, po, 1200 mg
metric: Tmax (h)
Please give a number only; it is taken to be in h.

## Task Data request, read-out Tmax, for Cc1cccc(C)c1N(CC(=O)Nc1ccc(-c2ncon2)cc1)C(=O)C1CCS(=O)(=O)CC1 [amenamevir]
## Result 3

---

- Type: in vivo, human
- condition details: male, human, plasma, oral, 400 mg, Cmax, LS mean, amenamevir 400 mg alone, n = 24
metric: Cmax

## Task Data request, read-out Cmax, for `Cc1cccc(C)c1N(CC(=O)Nc1ccc(-c2ncon2)cc1)C(=O)C1CCS(=O)(=O)CC1`
## Result 1850 ng/mL

---

- Type: in vivo, human
- condition details: male, human, plasma, Cmax, LS mean, amenamevir 1200 mg with ritonavir 600 mg, n = 24
metric: Cmax (ng/mL)
Reply with just the number (in ng/mL).

## Task Need Cmax, item `Cc1cccc(C)c1N(CC(=O)Nc1ccc(-c2ncon2)cc1)C(=O)C1CCS(=O)(=O)CC1`
## Result 6210

---

- Assay type: in vivo, human
- condition details: male, human, plasma, 1200 mg, Cmax, LS mean, amenamevir 1200 mg alone, n = 24
metric: Cmax (ng/mL)
Write the value in ng/mL as a bare number.

## Task I am curious: what Cmax value has been reported for `Cc1cccc(C)c1N(CC(=O)Nc1ccc(-c2ncon2)cc1)C(=O)C1CCS(=O)(=O)CC1` ?
## Result 3800

---

- Format: in vivo, human
- condition details: male, human, plasma, oral, AUC0–∞, arithmetic mean, Day 12, midazolam 7.5 mg with amenamevir 400 mg (last of 10 daily doses), n = 18
metric: AUC(0-inf) (ng·h/mL)
Numeric answer only, unit ng·h/mL assumed.

## Task Any idea what AUC(0-inf) was measured for `Cc1ncc2n1-c1ccc(Cl)cc1C(c1ccccc1F)=NC2` ?
## Result 60.3

---

- Type: in vivo, human
- condition details: male, human, plasma, geometric mean elimination half‐life, amenamevir alone, irrespective of the dose (400 mg and 1200 mg)
metric: half-life

## Task # half-life lookup, item Cc1cccc(C)c1N(CC(=O)Nc1ccc(-c2ncon2)cc1)C(=O)C1CCS(=O)(=O)CC1 [amenamevir]
## Result ~420 min

---

- Format: in vivo, human
- condition details: male, human, plasma, oral, AUC0–tn, geometric mean, Day 12, midazolam 7.5 mg with amenamevir 400 mg (last of 10 daily doses), n = 18
metric: AUC
Kindly format the answer as number then unit.

## Task So what's the measured AUC for this one? Cc1ncc2n1-c1ccc(Cl)cc1C(c1ccccc1F)=NC2 [midazolam]
## Result 56.7 ng·h/mL
